target: Bifunctional 3'-5' exonuclease/ATP-dependent helicase WRN [480-1251] (UniProt Q14191); construct: 480-1251; experiment: Biochemical Activity Assays
Sequence (Q14191 480-1251): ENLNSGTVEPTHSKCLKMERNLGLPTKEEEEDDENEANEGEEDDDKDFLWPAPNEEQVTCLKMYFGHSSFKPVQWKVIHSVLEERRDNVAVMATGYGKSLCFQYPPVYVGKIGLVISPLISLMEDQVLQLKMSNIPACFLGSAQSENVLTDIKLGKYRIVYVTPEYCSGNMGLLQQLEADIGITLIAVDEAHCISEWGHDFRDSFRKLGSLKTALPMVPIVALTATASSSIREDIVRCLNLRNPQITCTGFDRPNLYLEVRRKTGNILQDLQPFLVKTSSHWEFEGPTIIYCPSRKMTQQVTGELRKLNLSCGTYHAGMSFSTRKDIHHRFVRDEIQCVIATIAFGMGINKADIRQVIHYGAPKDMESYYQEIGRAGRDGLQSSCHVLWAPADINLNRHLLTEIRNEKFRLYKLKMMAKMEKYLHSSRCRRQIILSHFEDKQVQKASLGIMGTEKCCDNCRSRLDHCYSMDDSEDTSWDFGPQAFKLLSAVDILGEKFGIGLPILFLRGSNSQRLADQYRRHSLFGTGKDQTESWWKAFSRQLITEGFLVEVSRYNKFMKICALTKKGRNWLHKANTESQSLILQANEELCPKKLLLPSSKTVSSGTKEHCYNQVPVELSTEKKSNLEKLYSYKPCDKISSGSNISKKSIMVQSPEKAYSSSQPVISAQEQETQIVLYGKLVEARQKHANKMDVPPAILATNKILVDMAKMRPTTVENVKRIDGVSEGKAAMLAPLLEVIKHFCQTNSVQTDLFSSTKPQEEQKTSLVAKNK
test-readout: IC50 (nM)
Give the value in nM but do not write nM after it.

>>> recorded_value("CCc1c(N2CCN(C(=O)c3ncnc(C)c3O)CC2)c(=O)n2nc(-c3ccc4nn(C)nc4c3)nc2n1CC(=O)Nc1ccc(C(F)(F)F)cc1Cl")
35

Input CCc1c(N2CCN(C(=O)c3nocc3O)CC2)c(=O)n2nc(-c3ccc4c(c3)COC4)nc2n1CC(=O)Nc1ccc(C(F)(F)F)cc1Cl [WO2025049746, Example 446] . Output IC50: 20

IC50 recorded for this molecule, `CCc1c(N2CCN(C(=O)c3ncnc(C)c3O)CC2)c(=O)n2nc(N3CCC3)nc2n1CC(=O)Nc1c(Cl)cc(C(F)(F)F)c2c1CC2` , is 82

In plain terms, `CCc1c(N2CCN(C(=O)c3ncccc3N)CC2)c(=O)n2nc(C3=CCOCC3)nc2n1CC(=O)Nc1ccc(C(F)(F)F)cc1Cl` has a documented IC50 of 28.5

Short answer for `CCc1c(N2CCN(C(=O)c3ncnc(C)c3O)CC2)c(=O)n2nc(-c3ccc4nc(C)ccc4c3)nc2n1CC(=O)Nc1ccc(C(F)(F)F)cc1Cl` : IC50 was 28

IC50 reported for this molecule `CCc1c(N2CCN(C(=O)c3ncnc(C)c3O)CC2)c(=O)n2nc(-c3ccc4nn(C(F)F)cc4c3)nc2n1CC(=O)Nc1ccc(C(F)(F)F)cc1Cl` : 26

// IC50 value for `CCc1c(N2CCN(C(=O)c3nccc4nc[nH]c34)CC2)c(=O)n2nc(-c3ccc4c(c3)OCO4)nc2n1CC(=O)Nc1ccc(C(F)(F)F)cc1Cl` : 28.9

Per the records, this molecule ( `CCc1c(N2CCN(C(=O)c3ncnc(C)c3O)CC2)c(=O)n2nc(-c3ccn4nc(F)cc4c3)nc2n1CC(=O)Nc1ccc(C(F)(F)F)cc1Cl` ) has IC50 equal to 25

---

Molecular target: Bifunctional 3'-5' exonuclease/ATP-dependent helicase WRN (Homo sapiens)
Experiment: ADP-Glo Kinase Assay
Protocol: ATPase activity was measured using the ADP-Glo Kinase Assay following the manufacturers recommended protocol.
Listing of recorded pIC50 by entry.
Interpret pIC50 as the negative base-10 log of the concentration measured in mol/L.

Here are 4 compounds together with their reported answers.
>>> recorded_value("CCc1c(N2CCN(C(=O)c3ncnc(C)c3O)CC2)c(=O)n2nc(-c3ccc4c(c3)COC43CCC3)nc2n1CC(=O)Nc1ccc(C(F)(F)F)cc1Cl")
7.32
>>> recorded_value("CCc1c(N2CCN(C(=O)c3nc4n(c(=O)c3O)CCCC4)CC2)c(=O)n2nc(-c3ccc4c(c3)COC4)nc2n1CC(=O)Nc1ccc(C(F)(F)F)cc1Cl")
7.72
>>> recorded_value("CCc1c(N2CCN(C(=O)c3ncnc(C)c3O)CC2)c(=O)n2nc(-c3ccc4nn(C5COC5)cc4c3)nc2n1CC(=O)Nc1ccc(C(F)(F)F)cc1Cl")
7.36
>>> recorded_value("CCc1c(N2CCN(C(=O)c3ncnc(C)c3O)CC2)c(=O)n2nc(C3=CCOCC3)nc2n1CC(=O)Nc1ccc(C(F)(F)F)c2scnc12")
7.44

response.value for `CCc1c(N2CCN(C(=O)c3nccc(C)c3N)CC2)c(=O)n2nc(C3=CCOCC3)nc2n1CC(=O)Nc1ccc(C(F)(F)F)cc1Cl` (field: pIC50) = 7.37

---

biological target: Bifunctional 3'-5' exonuclease/ATP-dependent helicase WRN [480-1251] (UniProt Q14191); construct: 480-1251; experiment: Biochemical Activity Assays
Readings of IC50 for the listed compounds
Please state the figure in nM; there is no need to write the unit.

As a guide, the following entries are already answered.
>>> recorded_value("CCc1c(N2CC[C@H](C)N(C(=O)c3ncnc(C)c3O)CC2)c(=O)n2nc(C3=CCOCC3)nc2n1CC(=O)Nc1ccc(C(F)(F)F)cc1Cl")
420
>>> recorded_value("CCc1c(N2CCN(C(=O)c3ncnc(C)c3O)CC2)c(=O)n2nc(-c3ccc4c(c3)COC43CCOCC3)nc2n1CC(=O)Nc1ccc(C(F)(F)F)cc1Cl")
56
>>> recorded_value("CCc1c(N2CCN(C(=O)c3ncnc(C)c3O)CC2)c(=O)n2nc(-c3cc(C)c4ncccc4c3)nc2n1CC(=O)Nc1ccc(C(F)(F)F)cc1Cl")
60
>>> recorded_value("CCc1c(N2CCN(C(=O)c3ncnc(C)c3O)CC2)c(=O)n2nc(-c3ccc4c(c3)COC4)nc2n1CC(=O)Nc1ccc(SC(F)(F)F)cc1Cl")
25

Measured IC50, `Cc1ncnc(C(=O)N2CCN(c3c4n(c5nc(-c6ccc7c(c6)COC7(C)C)nn5c3=O)[C@H](C(=O)Nc3ccc(C(F)(F)F)cc3Cl)C[C@H]4C)[C@H]3CC[C@@H]32)c1O` : 9570

---

Each entry below carries its reported IC50.
target: Bifunctional 3'-5' exonuclease/ATP-dependent helicase WRN [480-1251] (UniProt Q14191); construct: 480-1251; test: Biochemical Activity Assays
Answer in nM, number only, no unit symbol.

>>> recorded_value("CCc1c(N2CCN(C(=O)c3ncnc(C)c3O)CC2)c(=O)n2nc(N3CC4(COC4)C3)nc2n1CC(=O)Nc1ccc(C(F)(F)F)cc1Cl")
62.1
>>> recorded_value("CCc1c(N2CCN(C(=O)c3ncnc(C)c3O)CC2)c(=O)n2nc(-c3ccc4c(c3)CN(C)C4=O)nc2n1CC(=O)Nc1ccc(C(F)(F)F)cc1Cl")
26

Bench note, Bifunctional 3'-5' exonuclease/ATP-dependent helicase WRN [480-1251] (UniProt Q14191): entry `CCc1c(N2CCN(C(=O)c3ncnc(C)c3O)CC2)c(=O)n2nc(-c3cc(C(F)(F)F)c4ncccc4c3)nc2n1CC(=O)Nc1ccc(C(F)(F)F)cc1Cl` , its IC50 = 96

// returns IC50 for `CCc1c(N2CCN(C(=O)c3ncnc(C)c3O)CC2)c(=O)n2nc(-c3ccc4c(c3)COC4)nc2n1CC(=O)Nc1ccc(C2(C(F)(F)F)CC2)cc1Cl` with Bifunctional 3'-5' exonuclease/ATP-dependent helicase WRN [480-1251] (UniProt Q14191); value = 65

The recorded IC50 with Bifunctional 3'-5' exonuclease/ATP-dependent helicase WRN [480-1251] (UniProt Q14191) for `CCc1c(N2CCN(C(=O)c3ncnc(C)c3O)CC2)c(=O)n2nc(-c3cnn4c3CCC4)nc2n1CC(=O)Nc1ccc(C(F)(F)F)cc1Cl` was 14

---

biological target: Bifunctional 3'-5' exonuclease/ATP-dependent helicase WRN (Homo sapiens, UniProt Q14191); assay: ADP-Glo Kinase Assay
Sequence (Q14191 whole entry): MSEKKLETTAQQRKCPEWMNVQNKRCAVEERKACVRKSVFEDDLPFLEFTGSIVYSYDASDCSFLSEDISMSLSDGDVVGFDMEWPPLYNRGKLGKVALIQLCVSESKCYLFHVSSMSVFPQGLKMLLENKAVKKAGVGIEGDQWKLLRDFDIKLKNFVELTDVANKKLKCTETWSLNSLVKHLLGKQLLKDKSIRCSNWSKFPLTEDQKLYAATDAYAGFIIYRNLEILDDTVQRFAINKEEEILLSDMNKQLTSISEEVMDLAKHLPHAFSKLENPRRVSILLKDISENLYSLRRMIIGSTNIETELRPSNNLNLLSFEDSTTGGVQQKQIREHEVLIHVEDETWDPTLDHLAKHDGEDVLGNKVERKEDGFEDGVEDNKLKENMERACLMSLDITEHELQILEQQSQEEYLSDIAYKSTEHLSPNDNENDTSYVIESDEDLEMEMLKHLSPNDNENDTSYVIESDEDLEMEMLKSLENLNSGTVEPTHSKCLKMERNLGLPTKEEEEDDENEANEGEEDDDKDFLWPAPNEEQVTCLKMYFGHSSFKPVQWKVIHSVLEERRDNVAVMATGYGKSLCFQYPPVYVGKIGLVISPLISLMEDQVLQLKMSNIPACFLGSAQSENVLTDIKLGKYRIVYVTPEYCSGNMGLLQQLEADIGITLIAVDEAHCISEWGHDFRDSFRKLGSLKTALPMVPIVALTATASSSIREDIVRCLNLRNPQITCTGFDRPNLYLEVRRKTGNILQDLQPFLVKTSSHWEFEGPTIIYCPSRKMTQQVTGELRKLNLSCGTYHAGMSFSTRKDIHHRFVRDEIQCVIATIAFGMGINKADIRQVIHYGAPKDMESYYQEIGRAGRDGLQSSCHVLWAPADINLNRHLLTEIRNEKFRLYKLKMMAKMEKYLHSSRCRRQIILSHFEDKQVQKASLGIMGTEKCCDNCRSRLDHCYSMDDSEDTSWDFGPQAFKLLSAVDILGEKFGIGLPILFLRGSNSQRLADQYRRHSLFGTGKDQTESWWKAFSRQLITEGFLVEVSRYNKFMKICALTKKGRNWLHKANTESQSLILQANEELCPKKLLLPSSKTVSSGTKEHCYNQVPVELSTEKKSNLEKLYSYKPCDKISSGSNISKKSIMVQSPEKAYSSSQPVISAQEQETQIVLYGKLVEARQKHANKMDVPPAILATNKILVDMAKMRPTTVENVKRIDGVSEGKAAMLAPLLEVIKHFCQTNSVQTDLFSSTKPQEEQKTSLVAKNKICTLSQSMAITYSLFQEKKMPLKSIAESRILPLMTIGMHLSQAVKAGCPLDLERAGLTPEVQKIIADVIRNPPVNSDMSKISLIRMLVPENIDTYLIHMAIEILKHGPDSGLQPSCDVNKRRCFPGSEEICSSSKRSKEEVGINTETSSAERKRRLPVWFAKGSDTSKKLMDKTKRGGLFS
test-readout: pIC50
Recall that pIC50 is obtained by taking minus log10 of the concentration measured in molar.

The cases that follow already have their pIC50 on record.
>>> recorded_value("CCc1c(N2CCN(C(=O)c3ncnc(C)c3O)CC2)c(=O)n2nc(-c3ccc4c(c3)COC4)nc2n1CC(=O)Nc1ccc(C(F)(F)F)cc1OC1CC1")
6.41
>>> recorded_value("CCc1c(N2CCN(C(=O)c3ncnc(C)c3O)CC2)c(=O)n2nc(-c3ccc4nn(C)cc4c3)nc2n1CC(=O)Nc1ccc(C(F)(F)F)cc1Cl")
7.64
>>> recorded_value("CCc1c(N2CCN(C(=O)c3ncnc(C)c3O)CC2)c(=O)n2nc(-c3ccc4nc(NCC(F)F)oc4c3)nc2n1CC(=O)Nc1ccc(C(F)(F)F)cc1Cl")
7.38
>>> recorded_value("CCc1c(N2CCN(C(=O)c3ncnc(C)c3O)CC2)c(=O)n2nc(-c3ccc4c(c3)CC(C)O4)nc2n1CC(=O)Nc1ccc(C(F)(F)F)cc1Cl (stereo not given)")
7.35

// switching to the query compound
Reported pIC50 of `CCc1c(N2CCN(C(=O)c3ncnc(C)c3O)CC2)c(=O)n2nc(-c3ccc4c(c3)C(C)(C)CO4)nc2n1CC(=O)Nc1ccc(C(F)(F)F)cc1Cl` : 7.14

---

molecular target: Bifunctional 3'-5' exonuclease/ATP-dependent helicase WRN (Homo sapiens); experiment: ADP-Glo Kinase Assay
pIC50: −log10 of the molar value.
Everything with pIC50 lower than 7 is f; everything else, including exactly 7, is t.

Solved cases below.
>>> category_label("CCc1c(N2CCN(C(=O)c3ncnc(C)c3O)CC2)c(=O)n2nc(-c3cnc4c(c3)CCO4)nc2n1CC(=O)Nc1ccc(C(F)(F)F)cc1Cl [WO2025049746, Example 157]")
"t"
>>> category_label("CCc1c(N2CCN(C(=O)c3ncnc(C)c3O)CC2)c(=O)n2nc(N(C)C)nc2n1CC(=O)Nc1ccc(SC(F)(F)F)cc1 [WO2025049746, Example 392]")
"f"
>>> category_label("CCc1c(N2CCN(C(=O)c3ncnc(C)c3O)CC2)c(=O)n2nc(-c3ccc4c(c3)C[C@H](C)O4)nc2n1CC(=O)Nc1ccc(C(F)(F)F)cc1Cl [WO2025049746, Example 230]")
"t"
>>> category_label("CCc1c(N2CCN(C(=O)c3ncnc(C)c3O)CC2)c(=O)n2nc(-c3cc4c(cc3F)O[C@H](C)C4)nc2n1CC(=O)Nc1ccc(C(F)(F)F)cc1Cl [WO2025049746, Example 250]")
"t"
>>> category_label("CCc1c(N2CCN(C(=O)c3ncnc(C)c3O)CC2)c(=O)n2nc(-c3ccn4c(C)ncc4c3)nc2n1CC(=O)Nc1ccc(C(F)(F)F)cc1Cl [WO2025049746, Example 218]")
"t"
>>> category_label("CCc1c(N2CCN(C(=O)c3ncnc(C)c3O)CC2)c(=O)n2nc(-c3cnc4nn(C)cc4c3)nc2n1CC(=O)Nc1ccc(C(F)(F)F)cc1Cl [WO2025049746, Example 313]")
"t"

Please find the next compound below.
Q) Determine whether measured pIC50 meets or exceeds 7 for CCc1c(N2CC[C@H](C)N(C(=O)c3ncnc(C)c3O)CC2)c(=O)n2nc(C3=CCOCC3)nc2n1CC(=O)Nc1ccc(C(F)(F)F)cc1Cl [WO2025049746, Example 342]
A) f
